- Tgt: PTP1B (Homo sapiens)
- Sequence (P18031 3-277 limits assumed): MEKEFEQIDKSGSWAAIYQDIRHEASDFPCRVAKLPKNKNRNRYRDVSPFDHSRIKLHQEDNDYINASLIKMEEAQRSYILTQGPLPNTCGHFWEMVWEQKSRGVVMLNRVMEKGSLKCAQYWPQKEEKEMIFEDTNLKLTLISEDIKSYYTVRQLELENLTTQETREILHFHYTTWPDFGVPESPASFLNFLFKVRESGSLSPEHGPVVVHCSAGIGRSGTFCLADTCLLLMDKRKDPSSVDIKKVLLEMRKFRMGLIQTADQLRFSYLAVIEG
Measurement Kind: Ki (µM)
State just the number; it will be interpreted in µM.

# compound C=CCc1ccc(O)c(-c2ccc(O)c(CC=C)c2)c1 [Honokiol] ; its Ki = 6.67

====

- Tgt: HePTP (Homo sapiens)
- Sequence (P35236 97-350 limits assumed): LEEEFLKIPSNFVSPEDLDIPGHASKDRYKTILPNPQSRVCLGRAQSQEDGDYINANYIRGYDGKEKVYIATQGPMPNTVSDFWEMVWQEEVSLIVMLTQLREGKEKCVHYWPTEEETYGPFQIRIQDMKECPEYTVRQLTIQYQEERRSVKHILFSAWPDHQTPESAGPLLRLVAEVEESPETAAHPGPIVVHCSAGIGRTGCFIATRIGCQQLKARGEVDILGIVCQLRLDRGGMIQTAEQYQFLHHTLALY
Measurement Kind: IC50 (µM)
Answer in µM, number only, no unit symbol.

According to the records, this molecule C=CCc1ccc(O)c(-c2ccc(O)c(CC=C)c2)c1 [Honokiol] displays IC50 of 890

====

- Tgt: TCPTP (Homo sapiens, UniProt P17706)
- Sequence (P17706 5-275 limits assumed, species assumed): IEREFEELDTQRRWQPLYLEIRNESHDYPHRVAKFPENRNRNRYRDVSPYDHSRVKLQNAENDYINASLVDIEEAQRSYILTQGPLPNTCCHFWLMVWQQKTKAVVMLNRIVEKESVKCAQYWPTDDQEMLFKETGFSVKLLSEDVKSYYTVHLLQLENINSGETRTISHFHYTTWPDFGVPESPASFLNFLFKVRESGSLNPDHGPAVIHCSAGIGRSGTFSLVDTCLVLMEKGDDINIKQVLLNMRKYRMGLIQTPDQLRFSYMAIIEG
- Measurement Description: PTP selectivity panel
- Format: biochemical
Measurement Kind: pIC50
Please express pIC50 as -log10 of the molar concentration.

According to the records, this compound C=CCc1ccc(O)c(-c2ccc(O)c(CC=C)c2)c1 [Honokiol] displays pIC50 of 3.22

====

- Tgt: SHP2 (Homo sapiens, UniProt Q06124)
- Sequence (Q06124 247-517 limits assumed, species assumed): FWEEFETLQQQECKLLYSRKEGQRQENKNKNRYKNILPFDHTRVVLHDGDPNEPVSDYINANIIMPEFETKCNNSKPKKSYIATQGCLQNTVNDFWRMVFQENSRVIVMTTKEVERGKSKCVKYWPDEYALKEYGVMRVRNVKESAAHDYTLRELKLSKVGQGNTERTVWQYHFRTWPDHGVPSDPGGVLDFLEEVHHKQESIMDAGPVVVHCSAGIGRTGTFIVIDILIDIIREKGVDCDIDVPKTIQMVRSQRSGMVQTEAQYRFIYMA
Measurement Kind: pIC50
Please treat pIC50 as minus the base-10 logarithm of the molar concentration.

Response field pIC50 (SHP2 (Homo sapiens, UniProt Q06124)) for item C=CCc1ccc(O)c(-c2ccc(O)c(CC=C)c2)c1 [Honokiol] : 3.10
